Where do the numbers come from? From patent US8445539B2.

target: MAO-B (Rattus norvegicus, UniProt P19643); test: biochemical
Sequence (P19643 whole entry): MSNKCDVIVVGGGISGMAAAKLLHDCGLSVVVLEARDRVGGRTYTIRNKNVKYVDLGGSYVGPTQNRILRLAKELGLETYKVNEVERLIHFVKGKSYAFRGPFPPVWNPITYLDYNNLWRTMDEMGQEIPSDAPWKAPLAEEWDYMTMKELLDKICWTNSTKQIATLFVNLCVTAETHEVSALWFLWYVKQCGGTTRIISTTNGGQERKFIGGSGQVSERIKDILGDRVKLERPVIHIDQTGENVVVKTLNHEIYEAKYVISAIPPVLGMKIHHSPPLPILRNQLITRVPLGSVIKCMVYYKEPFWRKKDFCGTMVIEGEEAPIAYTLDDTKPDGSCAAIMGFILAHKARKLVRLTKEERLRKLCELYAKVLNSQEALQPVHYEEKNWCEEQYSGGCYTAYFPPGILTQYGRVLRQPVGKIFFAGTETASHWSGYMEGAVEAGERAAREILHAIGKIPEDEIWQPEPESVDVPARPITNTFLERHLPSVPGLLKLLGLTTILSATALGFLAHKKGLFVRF
MEASUREMENT_TYPE: pIC50
# log scale: pIC50 equals minus log10 of the concentration in mol/L

INPUT: I'd like to know its pIC50. The molecule in question is C[C@H](NCc1ccc(OCc2ccccc2F)cc1)C(N)=O [Ralfinamide methanesulfonate]
OUTPUT: 6.88
